- System: K562
- assayName: Cytotoxicity against human K562 cells at 10 uM after 48 hrs by sulforhodamine B assay relative to control
- Assay type: functional
Activity of 90% or higher: Y. Under 90%: N.

Known results for compounds:
{"molecularString": "CCCSCC(=O)Nc1ccc2c(c1)C(=O)c1cc(NC(=O)CSCCC)ccc1-2", "measuredOn": "K562", "assignedCategory": "N"}
{"molecularString": "CCCCNCC(=O)Nc1ccc2c(c1)C(=O)c1cc(NC(=O)CNCCCC)ccc1-2", "measuredOn": "K562", "assignedCategory": "N"}
{"molecularString": "CCSCCC(=O)Nc1ccc2c(c1)C(=O)c1cc(NC(=O)CCSCC)ccc1-2", "measuredOn": "K562", "assignedCategory": "Y"}
{"molecularString": "O=C(CCN1CCOCC1)Nc1ccc2c(c1)C(=O)c1cc(NC(=O)CCN3CCOCC3)ccc1-2", "measuredOn": "K562", "assignedCategory": "Y"}
{"molecularString": "CN1CCN(CCC(=O)Nc2ccc3c(c2)C(=O)c2cc(NC(=O)CCN4CCN(C)CC4)ccc2-3)CC1", "measuredOn": "K562", "assignedCategory": "Y"}
{"molecularString": "CCCNCC(=O)Nc1ccc2c(c1)C(=O)c1cc(NC(=O)CNCCC)ccc1-2", "measuredOn": "K562", "assignedCategory": "N"}
{"molecularString": "CN1CCN(CC(=O)Nc2ccc3c(c2)C(=O)c2cc(NC(=O)CN4CCN(C)CC4)ccc2-3)CC1", "measuredOn": "K562", "assignedCategory": "Y"}
{"molecularString": "O=C(CN1CCCC1)Nc1ccc2c(c1)C(=O)c1cc(NC(=O)CN3CCCC3)ccc1-2", "measuredOn": "K562", "assignedCategory": "N"}

From here, focus on the item given below.
(Q) Determine whether this compound has Activity no lower than 90%: CCNCC(=O)Nc1ccc2c(c1)C(=O)c1cc(NC(=O)CNCC)ccc1-2
(A) N

Taken from ChEMBL document CHEMBL2439971.
